- TEST_TARGET: T1, recombinant human 4R0N tau (human, UniProt P10636 2-758)
- T1 construct: also called P10636-6
- T1 sequence (P10636 other isoform, or with tags, fused parts or gaps limits assumed): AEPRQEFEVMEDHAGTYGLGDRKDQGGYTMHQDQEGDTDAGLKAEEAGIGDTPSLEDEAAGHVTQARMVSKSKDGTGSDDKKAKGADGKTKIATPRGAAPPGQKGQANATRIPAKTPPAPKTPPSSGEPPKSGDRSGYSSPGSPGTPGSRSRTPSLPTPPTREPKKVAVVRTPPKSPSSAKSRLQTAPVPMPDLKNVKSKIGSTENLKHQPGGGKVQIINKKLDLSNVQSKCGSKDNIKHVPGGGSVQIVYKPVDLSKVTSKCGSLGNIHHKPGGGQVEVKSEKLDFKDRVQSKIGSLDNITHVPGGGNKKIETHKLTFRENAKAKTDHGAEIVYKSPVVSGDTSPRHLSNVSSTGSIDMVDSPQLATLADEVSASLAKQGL
- TEST_NAME: SPR, Biacore T200, antibody captured on anti-human Fc, tau as analyte, 1:1 fit
ENDPOINT_LABEL: koff (s⁻¹)
Reply numerically in s⁻¹, unit not repeated.

- BINDER: "hu3D6VHv1bA11/L2-DIM5 (antibody, V domains shown, Humanized antibody with human Fc) VH: EVQLVQSGAEVVKPGATVKISCKASGFNIKDYYLHWVRQRPGQGLEWIGWIDPENGDTVYDPKFQGRATITADTSTDTAYLQLGSLTSEDTAVYFCSTLDFWGQGTLVTVSS VL: DVVMTQSPLSLPVTLGQPASISCKSSQSLLDSDGKTYLNWLQQRPGQSPRRLIYLVGKTDSGVPDRFSGSGSGTDFTLKISRVEAEDVGVYYCWQGTHFPYTFGGGTKLEIK"
  READOUT_UNITS: "s⁻¹"
  koff: 0.000735

With those in mind, consider the next binder.
The measured koff associated with h3D6VHvb8/L2-DIM4 (antibody, V domains shown, Humanized antibody with human Fc) VH: EVQLVQSGAEVVKPGATVKISCKASGFNIKDYYLHWVRQRPGQGLEWIGWIDPENGDTVYEPKFQGRATITADTSTDTAYLQLGSLTSEDTAVYFCSTLDFWGQGTLVTVSS VL: DVVMTQSPLSLPVTLGQPASISCKSSQSLLDSDGKTYLNWLQQRPGQSPRRLIYLVGKRDSGVPDRFSGSGSGTDFTLKISRVEAEDVGVYYCWQGTHFPYTFGGGTKLEIK reads 0.00102
